The measurements presented in this section are drawn from patent EP1586565A1.

- TESTED TARGET: Human factor Xa (Homo sapiens, UniProt P00742)
- Construct: leads from XII to XIIa to XIa to IXa and to the conversion of X to Xa; purchased Enzyme Research Laboratories, South Bend IN
- Sequence (P00742 235-488 limits assumed): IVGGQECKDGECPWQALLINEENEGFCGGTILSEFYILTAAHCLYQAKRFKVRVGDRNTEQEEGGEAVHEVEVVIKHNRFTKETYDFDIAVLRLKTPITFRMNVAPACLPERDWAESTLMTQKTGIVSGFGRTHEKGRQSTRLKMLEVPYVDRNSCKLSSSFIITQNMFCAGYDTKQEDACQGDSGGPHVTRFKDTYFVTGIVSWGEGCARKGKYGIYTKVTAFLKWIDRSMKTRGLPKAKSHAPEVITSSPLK
- Sequence (P00742 41-179 limits assumed): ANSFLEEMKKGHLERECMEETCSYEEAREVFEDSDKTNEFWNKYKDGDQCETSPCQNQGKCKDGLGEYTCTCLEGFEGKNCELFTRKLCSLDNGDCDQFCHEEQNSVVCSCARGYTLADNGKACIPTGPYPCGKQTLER
- ASSAY: Xa Assay
- Format: biochemical
- MEASUREMENT SETUP: 100 µM
Under this convention, Fulfilled denotes % Inhibition Factor Xa (100 µM) strictly below 3% and Not fulfilled denotes % Inhibition Factor Xa (100 µM) at or above 3%.

O=C(Cn1c(-c2cccc(Cl)c2)c(Cl)nc(NCc2ccccc2)c1=O)NCCc1cccnc1 | Not fulfilled
O=C(Cn1c(-c2cccc(Cl)c2)c(Cl)nc(NCc2ccccc2)c1=O)NCCc1ccncc1 | Fulfilled
O=C(Cn1c(-c2ccc(Cl)cc2)c(Cl)nc(NCCc2ccc(Cl)cc2)c1=O)NCCc1ccncc1 [Example E-0028] | Fulfilled
COc1ccc(-c2c(Cl)nc(NCCc3ccccc3)c(=O)n2CC(=O)NCCc2ccncc2)cc1 | Not fulfilled
O=C(Cn1c(-c2cccc(Cl)c2)c(Cl)nc(NCCc2ccccc2)c1=O)NCCc1cccnc1 | Not fulfilled

Confirm or reject: % Inhibition Factor Xa (100 µM) of O=C(Cn1c(-c2ccc(Cl)cc2)c(Cl)nc(NCCc2ccc(Cl)cc2)c1=O)NCCc1ccncc1 [Example E-0020] lies strictly below 3% Fulfilled

Identify whether the compound O=C(Cn1c(-c2cccc(Cl)c2)c(Cl)nc(NCCc2ccc(Cl)cc2)c1=O)NCCc1cccnc1 [Example E-0095] records % Inhibition Factor Xa (100 µM) below 3%. Not fulfilled

Is % Inhibition Factor Xa (100 µM) of `O=C(Cn1c(-c2ccc(-c3ccccc3)cc2)c(Cl)nc(NCCc2ccccc2)c1=O)NCCc1ccncc1` strictly below 3%? Fulfilled

Please check: % Inhibition Factor Xa (100 µM) for O=C(Cn1c(-c2cccc(Cl)c2)c(Cl)nc(NCCc2cccc(Cl)c2)c1=O)NCCc1cccnc1 [Example E-0080] , strictly under 3% or not? Not fulfilled

Answer whether the compound `O=C(Cn1c(-c2ccc(Cl)cc2)c(Cl)nc(NCCN2CCOCC2)c1=O)NCCc1ccncc1` has % Inhibition Factor Xa (100 µM) strictly less than 3% Fulfilled
